tested on: OVCAR-5; assay: NCI tumour cell line growth inhibition, 48 h
Active and inactive are the calls of the source. No stated cut-off is given here; in the data, active = GI50 up to about 1.1 µM and inactive = higher.
attribute-measured: GI50

-- ask Report GI50, nothing else, for this molecule: Cc1cc(C)c(C2=NO[C@@H]3[C@H]2C(=O)C=C2N(Cc4ccccc4)CCO[C@@]23O)c(C)c1
-- reply > 100 µM (inactive)

-- ask Report GI50, nothing else, for this molecule: CC(C)[C@@H]1NC(=O)[C@H]2N=C(O[C@@H]2C)[C@@H]2CCCN2C(=O)[C@H](Cc2ccccc2)NC(=O)[C@@H]2CSC(=N2)[C@@H](Cc2ccccc2)NC(=O)[C@@H]2CSC1=N2
-- reply > 50 µM (inactive)

-- ask Report GI50, nothing else, for this molecule: CC(=O)c1c(C)[n+]([O-])c2cc(Cl)c(Cl)cc2[n+]1[O-]
-- reply 38.3 µM (inactive)

-- ask Report GI50, nothing else, for this molecule: N#C[C@@H](c1nc2ccccc2s1)c1ncccc1[N+](=O)[O-]
-- reply 11.9 µM (inactive)

-- ask Report GI50, nothing else, for this molecule: CC(C)C[C@H](NC(=O)[C@H](Cc1ccccc1)NC(=O)c1cnccn1)B(O)O
-- reply < 0.01 µM (active)

-- ask Report GI50, nothing else, for this molecule: CN(C)C(=S)OC(Cn1cncn1)c1ccc(Cl)cc1Cl (stereo not drawn)
-- reply > 100 µM (inactive)

-- ask Report GI50, nothing else, for this molecule: Cc1nc(-n2nc(-c3ccccc3)cc2-c2ccccc2)sc1C(=O)/C=C/c1ccc(Cl)cc1
-- reply 34.8 µM (inactive)

-- ask Report GI50, nothing else, for this molecule: Cc1ccccc1C(C#N)/C(=N/NC(N)=S)C(=O)Nc1c(C)cccc1C (stereo not drawn)
-- reply > 100 µM (inactive)

----------
Would you mind telling me the reported GI50 of each entry?
test system: OVCAR-8; assay: NCI tumour cell line growth inhibition, 48 h
Activity calls are given as the source filed them. Cut-off read from the data, not from the text of the source: active = GI50 up to about 1.1 µM and inactive = higher.

-- ask Fetch value of GI50 on OVCAR-8 for NCCCCNC1(c2cc3ccccc3s2)CCCCC1 .
-- reply 7.06 µM (inactive)

-- ask Fetch value of GI50 on OVCAR-8 for CSc1nc2c(=O)n(-c3ccccc3)c(=S)n(-c3ccccc3)c2s1 .
-- reply > 100 µM (inactive)

-- ask Fetch value of GI50 on OVCAR-8 for C[C@]12CC[C@@H]3c4ccc(OP(=O)(O)O)cc4CC[C@H]3[C@@H]1CCC2=O .
-- reply > 100 µM (inactive)

-- ask Fetch value of GI50 on OVCAR-8 for Clc1ccc(-c2nn3c(COc4cccc(OCc5nnc6sc(-c7ccc(Cl)cc7)nn56)c4)nnc3s2)cc1 .
-- reply 28.9 µM (inactive)

-- ask Fetch value of GI50 on OVCAR-8 for O=C(Nc1ccc(F)cc1)C(=O)C(C(=O)c1ccccc1F)C1OC(=O)c2ccccc21 (stereo not given) .
-- reply 43 µM (inactive)

----------
tested on: UACC-62; experiment: NCI tumour cell line growth inhibition, 48 h
Calls of active or inactive are those of the source. Rule as the data show it: active = GI50 up to about 1.1 µM and inactive = higher.
Would you mind telling me the reported GI50 of each entry?

-- ask Report GI50, nothing else, for this compound: CCN1CCCCC(=N\O)/C(=N/O)CCCC1
-- reply > 100 µM (inactive)

-- ask Report GI50, nothing else, for this compound: CC(C)CC(N)C(=O)NC(C(=O)NC(CCCNC(=N)N)C(=O)NC(CS)C(=O)NC1CSCC(C(=O)NC(Cc2ccccc2)C(=O)NC(C(=O)NC(CCCNC(=N)N)C(=O)O)C(C)C)NC(=O)C2CCCN2C(=O)C(CCCCN)NC(=O)C2CCCN2C(=O)C2CCCN2C(=O)C(Cc2ccc(O)cc2)NC(=O)C(CO)NC(=O)C(CCCCN)NC(=O)C(C(C)O)NC(=O)C(Cc2c[nH]c3ccccc23)NC1=O)C(C)C (stereo not drawn)
-- reply > 25 µM (inactive)

-- ask Report GI50, nothing else, for this compound: C[n+]1c2ccc(Cl)cc2nc2cc(-c3ccccc3)ccc21
-- reply 18.4 µM (inactive)
